assayed-target: Squalene synthase (Rattus norvegicus) (UniProt Q02769)
Sequence (Q02769 whole entry): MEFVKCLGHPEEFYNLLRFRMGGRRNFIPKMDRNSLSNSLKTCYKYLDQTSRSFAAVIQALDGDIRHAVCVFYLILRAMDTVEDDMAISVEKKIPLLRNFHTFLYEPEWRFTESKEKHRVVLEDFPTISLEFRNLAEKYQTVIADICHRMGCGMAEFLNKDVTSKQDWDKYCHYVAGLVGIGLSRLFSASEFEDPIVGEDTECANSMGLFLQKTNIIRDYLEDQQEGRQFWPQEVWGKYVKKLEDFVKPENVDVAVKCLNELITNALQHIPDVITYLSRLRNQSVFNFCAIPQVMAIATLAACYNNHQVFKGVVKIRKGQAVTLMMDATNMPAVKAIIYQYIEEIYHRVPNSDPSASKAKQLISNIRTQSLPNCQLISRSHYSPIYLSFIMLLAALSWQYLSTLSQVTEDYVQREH
procedure-summary: Concentration required to inhibit rat liver squalene synthase enzyme relative to control (L-694,599)
Recorded measurements of Relative activity, one per entry

{"molecule": "CCCC(=O)O[C@@H]1[C@@H](O)C2(CCCCc3ccccc3)OC(C(=O)O)C(O)(C(=O)O)C1(C(=O)O)O2 (stereo partly specified)", "Relative activity": 0}
{"molecule": "CCCC(=O)O[C@@H]1[C@@H](O)C2(CCCC[C@H](C)Cc3ccccc3)OC(C(=O)O)C(O)(C(=O)O)C1(C(=O)O)O2 (stereo partly specified)", "Relative activity": 0.0026}
{"molecule": "C=C(C)CC(=O)O[C@@H]1[C@@H](O)C2(CCC(=C)[C@@H](OC(C)=O)[C@H](C)Cc3ccccc3)OC(C(=O)O)C(O)(C(=O)O)C1(C(=O)O)O2 (stereo partly specified)", "Relative activity": 0.06}
{"molecule": "CC[C@H](C)C[C@H](C)CCC(=O)O[C@@H]1[C@@H](O)C2(CCCCc3ccccc3)OC(C(=O)O)C(O)(C(=O)O)C1(C(=O)O)O2 (stereo partly specified)", "Relative activity": 0.002}
{"molecule": "C=C(CCC12OC(C(=O)O)C(O)(C(=O)O)C(C(=O)O)(O1)[C@H](OCCCC)[C@H]2O)[C@@H](OC(C)=O)[C@H](C)Cc1ccccc1 (stereo partly specified)", "Relative activity": 0.08}
{"molecule": "C=C(CCC12OC(C(=O)O)C(O)(C(=O)O)C(C(=O)O)(O1)[C@H](OCCCCCCCCCCCOc1ccccc1)[C@H]2O)[C@@H](OC(C)=O)[C@H](C)Cc1ccccc1 (stereo partly specified)", "Relative activity": 2}
